Target: angiotensin II AT1 receptor
Test: Assay A: Angiotensin II binding activity, rat uterine membrane preparation, 125I-AII displacement
Experimental: Assay A: Antiotensin II Binding Activity Compounds of the invention were tested for ability to bind to the smooth muscle angiotensin II receptor using a rat uterine membrane preparation. […] Rat uterine membranes were prepared from fresh tissue. […] Filters were assayed for radioactivity in a Micromedic gamma counter. […] Specific binding was calculated as total binding minus nonspecific binding. […] Binding data were analyzed by a nonlinear least-squares curve fitting program.
# note: boundary value 90 nM maps to rule not met; IC50 below it maps to rule met

Please review the following examples before continuing.
CCCCCn1nc(CCCC)n(Cc2ccc(-c3ccccc3-c3nn[nH]n3)cc2)c1=O [Compound 101] | rule met
CCCCc1nc(CCCC)n(Cc2ccc(-n3c(Br)ccc3-c3nnn[nH]3)cc2)n1 [Compound 152] | rule not met

Input line: API: query returns whether the compound falls strictly under 90 nM in IC50. Query: CCCCc1cn(-c2ccccc2C(C)C)c(=O)n1Cc1ccc(-c2ccccc2-c2nnn[nH]2)nc1 [Compound 230]
Output line: rule met

Input line: API: query returns whether the compound falls strictly under 90 nM in IC50. Query: CCCn1cc(CC(C)C)n(Cc2ccc(-c3ccccc3-c3nnn[nH]3)nc2)c1=O [Compound 198]
Output line: rule met

Input line: API: query returns whether the compound falls strictly under 90 nM in IC50. Query: CCCCc1nn(CC(=O)OC(C)(C)C)c(=O)n1Cc1ccc(-c2ccccc2-c2nn[nH]n2)cc1 [Compound 95]
Output line: rule met

Input line: API: query returns whether the compound falls strictly under 90 nM in IC50. Query: CCCCn1nc(C(=O)CCC)nc1Cc1ccc(-c2ccccc2-c2nnn[nH]2)nc1 [Compound 171]
Output line: rule met

Input line: API: query returns whether the compound falls strictly under 90 nM in IC50. Query: CCCCc1nn(Cc2cccc3ccccc23)c(=O)n1Cc1ccc(-c2ccccc2-c2nn[nH]n2)cc1 [Compound 99]
Output line: rule not met

Input line: API: query returns whether the compound falls strictly under 90 nM in IC50. Query: CCCCc1cn(CCC2CCCC2)c(=O)n1Cc1ccc(-c2ccccc2-c2nnn[nH]2)nc1 [Compound 222]
Output line: rule met

Input line: API: query returns whether the compound falls strictly under 90 nM in IC50. Query: CCCCn1nc(/C=C/c2cccs2)nc1Cc1ccc(-c2ccccc2-c2nnn[nH]2)nc1 [Compound 165]
Output line: rule not met

Input line: API: query returns whether the compound falls strictly under 90 nM in IC50. Query: CCCCc1nn(CC(OCC(=O)O)c2ccccc2)c(=O)n1Cc1ccc(-c2ccccc2-c2nn[nH]n2)cc1 (centres unmarked) [Compound 102]
Output line: rule met
